test system: Ruminococcus gnavus DSM 108212; assay: fold change of 2-Phenylethylamine concentration vs plate DMSO controls (fold change (ratio)); higher = more amine produced, active = hit call of the paper (significant change in both replicates, either direction); conditions: incubation time: 27 h, anaerobic, 37 °C
Where a name gives a salt, the structure may show the parent alone.
Metric name: fold change of 2-Phenylethylamine concentration
Please reply with the number alone, leaving off any unit.

Bench note, Ruminococcus gnavus DSM 108212: entry CO/N=C(\C(=O)N[C@@H]1C(=O)N2C(C(=O)O)=C(COC(N)=O)CS[C@H]12)c1ccco1 [Cefuroxime sodium salt] (20 µM) , its fold change of 2-Phenylethylamine concentration = 0.0618

fold change of 2-Phenylethylamine concentration for Ruminococcus gnavus DSM 108212 with input C[C@@H]1CCC[C@H](C)N1NC(=O)c1ccc(Cl)c(S(N)(=O)=O)c1 [Clopamide] (20 µM) equals 1.03

Short answer on Ruminococcus gnavus DSM 108212 for CCCCOC(=O)c1ccccc1Nc1cccc(C(F)(F)F)c1 [Ufenamate] (20 µM) , fold change of 2-Phenylethylamine concentration: 1.14

fold change of 2-Phenylethylamine concentration value, target or system Ruminococcus gnavus DSM 108212, for NC(=O)C1CO1 (centres undefined) [Glycidamide] (20 µM) : 0.973

* * *

tested on: Escherichia coli IAI1; experiment: fold change of Cadaverine concentration vs plate DMSO controls (fold change (ratio)); higher = more amine produced, active = hit call of the paper (significant change in both replicates, either direction); conditions: incubation time: 27 h, anaerobic, 37 °C;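 for the amine columns active = adjusted P below 0.05 in both replicates with a change the same way and a mean fold change under 0.8 or over 1.25; inactive = the rest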
Counter-ions that a name gives are not always drawn.
Hello, when you answer, please use one of the following outcomes: class 1 = active, class 0 = inactive

Task: Recorded call for CC(C)(C)C(=O)C(Oc1ccc(Cl)cc1)n1ccnc1 (stereo unspecified) [Climbazole] (20 µM) ?
Result: class 0

Task: Call for entry CCN(CC)CCOC(=O)c1ccc(N)cc1 [Procaine hydrochloride] (20 µM) :
Result: class 0

Task: Record request — test call for CC[N+]1(CC)CCC(=C(c2ccccc2)c2ccccc2)C1C (stereo unspecified) [Prifinium Bromide] (20 µM)
Result: class 0

Task: Recorded test call requested for Cc1c(Nc2ncccc2C(=O)O)cccc1C(F)(F)F [Flunixin meglumine] (20 µM)
Result: class 0

Task: # outcome recorded in this test, key = OCCOCCN1CCN(C(c2ccccc2)c2ccc(Cl)cc2)CC1 (stereo unspecified) [Hydroxyzine dihydrochloride] (20 µM)
Result: class 0

Task: Please share the test call associated with Cn1c(=O)c2[nH]cnc2n(C)c1=O [Aminophylline] (20 µM) .
Result: class 0

Task: Per the assay record, what outcome was assigned to C[N+]1(C)CCC(OC(=O)C(O)(c2ccccc2)C2CCCC2)C1 (stereo unspecified) [Glycopyrrolate bromide] (20 µM) ?
Result: class 0

Task: Tell me the recorded outcome of this test for COc1cc2c(cc1OC)CC(=O)N(CCCN(C)C[C@H]1Cc3cc(OC)c(OC)cc31)CC2 [Ivabradine hydrochloride] (20 µM) .
Result: class 0

Task: Recorded call for CSc1ccc2c(c1)N(CCC1CCCCN1C)c1ccccc1S2 (stereo unspecified) [Thioridazine hydrochloride] (20 µM) ?
Result: class 0

Task: Outcome? CCC(C)(C)c1ccc(CC(C)CN2C[C@@H](C)O[C@@H](C)C2)cc1 (stereo partly specified) [Amorolfine hydrochloride] (20 µM)
Result: class 0

Task: Give the logged outcome of this assay for the following compound: Cn1c(=O)c2c(ncn2CCO)n(C)c1=O [Etofylline] (20 µM)
Result: class 0

Task: I would be grateful if you could indicate the recorded call for CN(C)CCC=C1c2ccccc2COc2ccccc21 [Doxepin hydrochloride] (20 µM) .
Result: class 0

Task: Returns: the outcome recorded for CC1=C(CC(=O)O)c2cc(F)ccc2/C1=C\c1ccc([S+](C)[O-])cc1 (stereo unspecified) [Sulindac] (20 µM) in this assay.
Result: class 0

Task: Dear all, I need the recorded test outcome for CC(=O)Nc1nnc(S(N)(=O)=O)s1 [Acetazolamide] (20 µM) , thank you.
Result: class 0

Task: Just curious, what result did CC1(C)S[C@@H]2[C@H](NC(=O)[C@H](C(=O)O)c3ccsc3)C(=O)N2[C@H]1C(=O)O [Ticarcillin sodium] (20 µM) get here?
Result: class 1

Task: Tell me the assay call for Cc1c(C(=O)NN2CCCCC2)nn(-c2ccc(Cl)cc2Cl)c1-c1ccc(Cl)cc1 [Rimonabant] (20 µM) please.
Result: class 0
